Assay: Solubility of solid state forms in solvents (gravimetric or solvent addition)
Format: physicochemical
Settings: organic solvent or mixture, thermodynamic from solid; THF, RT; read-out: Solubility
Procedure: The solubility of certain solid state forms of Compound I was determined in various solvents by either gravimetric solubility or solvent addition. About 25 mg of compound was weighed into vials. Approximately 5 vol. (0.125 mL) of solvent was added to the solids and the mixtures stirred at the designated temperature (RT or 50° C.). Solutions were noted and an additional 0.125 mL of solvent was added to the slurries. […] If a thicker slurry was noted, 0.25 mL of solvent was added (total volume 0.5 mL). […]
Measured Quantity: solubility

*Q* Value lookup for solubility; key = CCOc1ccccc1-c1ccc(N2CCN(C(=O)C3(C(F)(F)F)CCC3)C[C@H]2CC)c(C(=O)N[C@@H]2CN3CCC2CC3)n1.O=C(O)/C=C\C(=O)O [Pattern C Maleate]
*A* > 200 mg/mL

====

Assay: Solubility of solid state forms in solvents (gravimetric or solvent addition)
Format: physicochemical
Conditions: organic solvent or mixture, thermodynamic from solid; MIBK, 50° C.; read-out: Solubility
Measured Quantity: solubility (mg/mL)
The answer is to be given in mg/mL; state only the numeric part.

*Q* Value lookup for solubility; key = CCOc1ccccc1-c1ccc(N2CCN(C(=O)C3(C(F)(F)F)CCC3)C[C@H]2CC)c(C(=O)N[C@@H]2CN3CCC2CC3)n1.O=C(O)/C=C\C(=O)O [Pattern C Maleate]
*A* 71

====

Experiment: Solubility of solid state forms in solvents (gravimetric or solvent addition)
Format: physicochemical
Conditions: organic solvent or mixture, thermodynamic from solid; IPAc, 50° C.; read-out: Solubility
Measured Quantity: solubility (mg/mL)
The answer is to be given in mg/mL; state only the numeric part.

*Q* Value lookup for solubility; key = CCOc1ccccc1-c1ccc(N2CCN(C(=O)C3(C(F)(F)F)CCC3)C[C@H]2CC)c(C(=O)N[C@@H]2CN3CCC2CC3)n1.O=C(O)/C=C\C(=O)O [Pattern C Maleate]
*A* 13

====

Experiment: Solubility of solid state forms in solvents (gravimetric or solvent addition)
Assay type: physicochemical
Settings: organic solvent or mixture, thermodynamic from solid; IPAc, RT; read-out: Solubility
Measured Quantity: solubility

*Q* Value lookup for solubility; key = CCOc1ccccc1-c1ccc(N2CCN(C(=O)C3(C(F)(F)F)CCC3)C[C@H]2CC)c(C(=O)N[C@@H]2CN3CCC2CC3)n1.O=C(O)/C=C\C(=O)O [Pattern C Maleate]
*A* 8000 µg/mL

====

Experiment: Solubility of solid state forms in solvents (gravimetric or solvent addition)
Assay type: physicochemical
Conditions: diethyl ether, organic solvent or mixture, thermodynamic from solid, diethyl ether, RT; read-out: Solubility
Where a name gives a salt, the structure may show the parent alone.
Measured Quantity: solubility (µg/mL)
The answer is to be given in µg/mL; state only the numeric part.

*Q* Value lookup for solubility; key = CCOc1ccccc1-c1ccc(N2CCN(C(=O)C3(C(F)(F)F)CCC3)C[C@H]2CC)c(C(=O)N[C@@H]2CN3CCC2CC3)n1 [Pattern D Maleate]
*A* 4000

====

Experiment: Solubility of solid state forms in solvents (gravimetric or solvent addition)
Type: physicochemical
Conditions: organic solvent or mixture, thermodynamic from solid; IPA, RT; read-out: Solubility
Measured Quantity: solubility

*Q* Value lookup for solubility; key = CCOc1ccccc1-c1ccc(N2CCN(C(=O)C3(C(F)(F)F)CCC3)C[C@H]2CC)c(C(=O)N[C@@H]2CN3CCC2CC3)n1.O=C(O)/C=C\C(=O)O [Pattern C Maleate]
*A* > 200 mg/mL

src = patent US20240208963A1
